Values compiled from patent US20260151494A1.

# key: entry, value: Apical domain:HSA
# Tgt: T1, apical domain of human CD71 (human, UniProt P02786 189-383, limits assumed)
# T1 construct: domain: apical domain; Screen 4 panned on human apical domains, the ELISA text says only 'apical domain'
# Experiment: primary ELISA, RLU over HSA
Endpoint Label: Apical domain:HSA

• CD71-binding FN3 domain of SEQ ID NO: 509 (designed binder) MLPAPKNLVVSRVTEDSARLSWTAPDAAFDSFEIGYWENAYKGEAIVLTVPGSERSYDLTGLKPGTEYEVFIGGVKGGVWSVPLSAIFTT = 353
• CD71-binding FN3 domain of SEQ ID NO: 456 (designed binder) MLPAPKNLVVSRVTEDSARLSWTAPDAAFDSFFIGYLEPQPPGEAIALYVPGSERSYDLTGLKPGTEYNVTIQGVKGGFPSHPLQAHFTT = 289
• CD71-binding FN3 domain of SEQ ID NO: 453 (designed binder) MLPAPKNLVVSRVTEDSARLSWTAQDAAFDSFFIGYLEPQPPGEAIALLVPGSERSYDLTGLKPGTEYNVTIQGVKGGFPSHPLSASFTT = 147
• CD71-binding FN3 domain of SEQ ID NO: 473 (designed binder) MLPAPKNLVVSRVTEDSARLSWTAPDAAFDSFFIGYLEPQPPGEAIDLWVPGSERSYDLTGLKPGTEYNVTIQGVKGGFPSLPLSASFTT = 91
